Origin of values: ChEMBL document CHEMBL1153333

Test system: PC-3
Assay Name: Antiproliferative activity against human PC3 cells after 72 hrs by MTT assay
Assay type: functional, cell-based
Measurement Setup: PC-3, 72 h
pIC50: −log10 of the molar value.
Parameter: pIC50. Scope: all listed entries.
Readout Name: pIC50

INSERT INTO measurements (smiles_data, readout_name, modifier_sign, test_value) VALUES
  ('COc1ccc(/C=C/C(=O)/C=C(O)/C=C/c2ccc(OC)c(O)c2)cc1O', 'pIC50', '<', 4.40),
  ('COc1ccc(/C=C/C(=O)/C=C/c2ccc(OC)c(OC)c2)cc1OC', 'pIC50', '=', 5.54),
  ('COc1cc(/C=C/C(=O)/C=C/c2ccc(OS(N)(=O)=O)c(OC)c2)ccc1OS(N)(=O)=O', 'pIC50', '=', 5.21),
  ('COc1cccc(/C=C/C(=O)/C=C(O)/C=C/c2cccc(OC)c2)c1', 'pIC50', '=', 4.40),
  ('COc1cc(/C=C/C(=O)CC(=O)/C=C/c2ccc(O)c(OC)c2)ccc1O', 'pIC50', '=', 4.70),
  ('O=C(/C=C/c1ccc(O)cc1)/C=C/c1ccc(O)cc1', 'pIC50', '=', 5.02),
  ('NS(=O)(=O)Oc1ccc(/C=C/C(=O)/C=C/c2ccc(OS(N)(=O)=O)cc2)cc1', 'pIC50', '=', 5.29),
  ('COc1cc(/C=C/C(=O)/C=C/c2ccc(O)c(OC)c2)ccc1O', 'pIC50', '=', 5.41),
  ('COc1cc(/C=C/C(=O)/C=C(O)/C=C/c2cc(OC)c(OS(N)(=O)=O)c(OC)c2)cc(OC)c1OS(N)(=O)=O', 'pIC50', '=', 4.88);
